assay: Evaluation of conversion rate to active form in buffer solution (Experimental Example 1); type: physicochemical; settings: pH6.0, 3 hr
measured_metric: Production rate of Alvocidib (%)

Solved entries (count: 4):
[
  {
    "compound": "CNCCN(C)C(=O)Oc1cc(O)c2c(=O)cc(-c3ccccc3Cl)oc2c1[C@H]1CCN(C)C[C@H]1O [Comparative Example 14, reference compound]",
    "measured_metric": "Production rate of Alvocidib",
    "numeric_value": 97.1
  },
  {
    "compound": "CNC(=O)O[C@@H]1CN(C)CC[C@@H]1c1c(O)cc(O)c2c(=O)cc(-c3ccccc3Cl)oc12 [Comparative Example 5, reference compound]",
    "measured_metric": "Production rate of Alvocidib",
    "numeric_value": 0.0
  },
  {
    "compound": "CC(C)[C@H](N)C(=O)O[C@@H]1CN(C)CC[C@@H]1c1c(O)cc(O)c2c(=O)cc(-c3ccccc3Cl)oc12 [Comparative Example 10, reference compound]",
    "measured_metric": "Production rate of Alvocidib",
    "numeric_value": 16.3
  },
  {
    "compound": "CN1CC[C@H](c2c(O)cc(O)c3c(=O)cc(-c4ccccc4Cl)oc23)[C@H](OC(=O)CN)C1 [Comparative Example 8, reference compound]",
    "measured_metric": "Production rate of Alvocidib",
    "numeric_value": 65.4
  }
]

A: CN1CC[C@H](c2c(O)cc(O)c3c(=O)cc(-c4ccccc4Cl)oc23)[C@H](OC(=O)[C@@H](N)CO)C1 [Comparative Example 9, reference compound]
B: CCNC(=O)O[C@@H]1CN(C)CC[C@@H]1c1c(O)cc(O)c2c(=O)cc(-c3ccccc3Cl)oc12 [Comparative Example 4, reference compound]
Choose between A and B : whose measured Production rate of Alvocidib value is numerically larger? Which one? Tell me its label.
A
